biological target: human FXR (NR1H4) (Homo sapiens, UniProt Q96RI1); assay: Human FXR (NR1H4) Assay: Gal4 promoter driven luciferase reporter transactivation in CHO cells (Indigo Bioscience kit IB00601); assay type: cell-based; conditions: CHO, read-out: Efficacy (%)
Sequence (Q96RI1 whole entry, the tested form may be a part): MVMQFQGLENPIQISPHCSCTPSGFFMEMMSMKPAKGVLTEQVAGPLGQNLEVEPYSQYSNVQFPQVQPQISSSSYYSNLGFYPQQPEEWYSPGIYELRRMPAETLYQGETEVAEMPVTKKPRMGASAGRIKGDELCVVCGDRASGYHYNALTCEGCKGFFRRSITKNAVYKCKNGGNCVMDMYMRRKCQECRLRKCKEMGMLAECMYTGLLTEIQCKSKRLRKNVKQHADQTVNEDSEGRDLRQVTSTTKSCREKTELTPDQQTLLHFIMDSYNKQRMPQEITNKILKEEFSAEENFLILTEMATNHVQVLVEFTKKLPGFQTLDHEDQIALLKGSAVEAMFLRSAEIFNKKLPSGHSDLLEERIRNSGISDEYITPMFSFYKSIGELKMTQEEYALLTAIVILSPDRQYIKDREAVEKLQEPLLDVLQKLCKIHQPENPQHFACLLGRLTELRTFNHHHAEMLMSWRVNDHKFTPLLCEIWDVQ
Parameter: Emax (%)
Answers are plain numbers, in %.

Hello, I would appreciate it if you could give Emax for each entry below.
1. O=C(O)c1ccc2c(c1)N(C(=O)N1C3CCC1CC(OCc1c(-c4ccccc4OC(F)(F)F)noc1C1CC1)C3)CCC2 (stereo not drawn) [Example 596]
2. CCOC(=O)c1ccc2c(c1)CCN2C(=O)N1C2CCC1CC(OCc1c(-c3ccccc3OC(F)(F)F)noc1C1CC1)C2 (stereo not drawn) [Example 591]

# output
1. 48
2. 166

# input Entry O=C(Nc1cccc(-c2ccccc2)c1)N1C2CCC1CC(NCc1c(-c3c(Cl)cccc3Cl)noc1C1CC1)C2 (stereo not drawn) [Example 773] : reported Emax = ?
# output 135
